biological target: T1, antithrombin III (plasma purified human AT-III), used as the AT-III/unfractionated heparin complex (human, UniProt P01008 33-464); assay: K0.5: AT-III/UFH titrated against FIXa, 10 s, residual cleavage of Mesyl-D-CHG-Gly-Arg-AMC
T1 construct: also called AT-III/UFH

{"binder": "FIXa-D203N/F205T/R338A (enzyme, also called D39N/F41T/R170A (chymotrypsin numbering)) chain 1: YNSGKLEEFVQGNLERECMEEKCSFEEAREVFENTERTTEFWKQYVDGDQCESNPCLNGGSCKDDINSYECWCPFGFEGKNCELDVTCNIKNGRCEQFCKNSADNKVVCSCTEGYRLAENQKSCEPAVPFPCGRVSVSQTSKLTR chain 2: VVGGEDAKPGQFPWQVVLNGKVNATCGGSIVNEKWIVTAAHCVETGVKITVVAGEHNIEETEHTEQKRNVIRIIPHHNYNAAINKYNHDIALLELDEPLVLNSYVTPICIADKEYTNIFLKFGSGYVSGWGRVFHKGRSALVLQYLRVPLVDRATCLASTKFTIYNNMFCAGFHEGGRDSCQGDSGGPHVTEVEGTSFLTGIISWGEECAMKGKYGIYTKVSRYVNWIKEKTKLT", "IC50 [nM]": 423}
{"binder": "FIXa-K228N/R318Y/E410N (enzyme, also called K63N/R150Y/E240N (chymotrypsin numbering)) chain 1: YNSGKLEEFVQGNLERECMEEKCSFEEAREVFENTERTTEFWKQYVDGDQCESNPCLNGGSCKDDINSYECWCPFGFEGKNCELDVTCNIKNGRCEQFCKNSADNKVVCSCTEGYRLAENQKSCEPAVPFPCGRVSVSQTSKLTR chain 2: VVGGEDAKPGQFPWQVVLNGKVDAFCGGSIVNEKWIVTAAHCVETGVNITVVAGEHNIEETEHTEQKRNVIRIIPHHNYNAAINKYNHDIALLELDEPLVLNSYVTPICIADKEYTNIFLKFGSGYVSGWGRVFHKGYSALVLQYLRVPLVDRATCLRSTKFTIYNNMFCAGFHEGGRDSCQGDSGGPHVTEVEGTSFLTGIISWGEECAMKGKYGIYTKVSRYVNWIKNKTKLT", "IC50 [nM]": 475}
{"binder": "FIXa-D203N/F205T/R318Y (enzyme, also called D39N/F41T/R150Y (chymotrypsin numbering)) chain 1: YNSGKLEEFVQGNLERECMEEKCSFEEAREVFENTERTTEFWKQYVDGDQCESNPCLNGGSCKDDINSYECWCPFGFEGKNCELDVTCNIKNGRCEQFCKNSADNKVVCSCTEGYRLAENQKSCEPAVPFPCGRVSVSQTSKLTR chain 2: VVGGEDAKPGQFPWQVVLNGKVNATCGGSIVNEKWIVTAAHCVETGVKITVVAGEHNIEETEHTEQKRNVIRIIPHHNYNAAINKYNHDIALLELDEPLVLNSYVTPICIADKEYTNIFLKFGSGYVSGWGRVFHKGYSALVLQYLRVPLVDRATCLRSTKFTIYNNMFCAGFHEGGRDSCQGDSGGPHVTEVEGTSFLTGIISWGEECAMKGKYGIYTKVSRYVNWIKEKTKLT", "IC50 [nM]": 7230}
{"binder": "FIXa-D203N/F205T/K228N (enzyme, also called D39N/F41T/K63N (chymotrypsin numbering)) chain 1: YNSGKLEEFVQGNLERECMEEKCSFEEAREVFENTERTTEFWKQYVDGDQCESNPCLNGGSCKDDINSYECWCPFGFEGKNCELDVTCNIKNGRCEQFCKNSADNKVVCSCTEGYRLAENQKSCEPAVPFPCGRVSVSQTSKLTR chain 2: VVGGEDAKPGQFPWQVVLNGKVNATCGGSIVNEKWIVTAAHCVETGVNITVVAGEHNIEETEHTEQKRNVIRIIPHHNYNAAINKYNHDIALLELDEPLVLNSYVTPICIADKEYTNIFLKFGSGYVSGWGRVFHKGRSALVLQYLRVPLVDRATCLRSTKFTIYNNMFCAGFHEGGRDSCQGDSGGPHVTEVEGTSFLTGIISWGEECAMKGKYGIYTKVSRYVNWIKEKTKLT", "IC50 [nM]": 822}
{"binder": "FIXa-D104N/K106S/R318Y/R338E/E410N (enzyme, also called D104N/K106S/R318Y/E410N/R338E) chain 1: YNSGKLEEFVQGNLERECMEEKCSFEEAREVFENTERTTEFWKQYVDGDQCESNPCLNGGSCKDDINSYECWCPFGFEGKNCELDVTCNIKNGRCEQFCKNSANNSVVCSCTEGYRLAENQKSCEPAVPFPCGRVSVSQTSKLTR chain 2: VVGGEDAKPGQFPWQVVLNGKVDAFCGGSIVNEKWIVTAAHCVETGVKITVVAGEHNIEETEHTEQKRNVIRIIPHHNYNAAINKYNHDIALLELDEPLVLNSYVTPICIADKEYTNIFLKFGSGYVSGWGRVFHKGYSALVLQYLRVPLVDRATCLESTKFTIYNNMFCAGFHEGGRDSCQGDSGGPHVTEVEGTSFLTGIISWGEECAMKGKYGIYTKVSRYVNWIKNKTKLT", "IC50 [nM]": 6330}
